- System: BDF1 mice, P388 leukemia ip, median survival T/C
- Method description: NCI In Vivo Anticancer Drug Screen. Data for tumor model P388 Leukemia (intraperitoneal) in B6D2F1 (BDF1) mice
- Conditions: endpoint: median survival time; dose: 100.0 mg/kg/injection; schedule: Q04DX003 (ip); vehicle: saline with Tween-80; higher = longer survival
- Protocol: The antitumor activity of compounds was measured in mice bearing transplantable tumors. Survival or tumor size were measured and the results are expressed as the measurement made in the treated group (T) divided by the measurement made in the vehicle treated control group (C). The tumor model used in this assay is P388 Leukemia (intraperitoneal) in B6D2F1 (BDF1) mice
Inconclusive results and toxic doses are left out.
Value type: T/C

Field: example entries. Status: answers known.
- Compound: "O=c1c2ccccc2c2c3c1cccc3c1cccc3c(=O)c4ccccc4c2c31"
  Tested system: "BDF1 mice, P388 leukemia ip, median survival T/C"
  Value measured: "86 % of control"
- Compound: "COc1ccc(C(=O)CCCCl)c(OC)c1"
  Tested system: "BDF1 mice, P388 leukemia ip, median survival T/C"
  Value measured: "100 % of control"

// returns T/C for COC(=O)CCCCCC(O)C1CCC2OC(=O)CC21C (configuration not stated) with BDF1 mice, P388 leukemia ip, median survival T/C; value = 100 % of control

###

- System: BDF1 mice, P388 leukemia ip, median survival T/C
- Method description: NCI In Vivo Anticancer Drug Screen. Data for tumor model P388 Leukemia (intraperitoneal) in B6D2F1 (BDF1) mice
- Conditions: endpoint: median survival time; dose: 50.0 mg/kg/injection; schedule: Q01DX009 (ip); vehicle: Klucel (hydroxypropylcellulose) (HPC)
Inconclusive results and toxic doses are left out. Rule for the calls: active = survival T/C of 150% or more; inactive = T/C below 125% in these data.
Hi! Could you answer with just one of these? active, inactive

Previously resolved entries follow.
- Compound: "OCCN1CCN(CCCN2c3ccccc3Oc3ccc(C(F)(F)F)cc32)CC1"
  Label class: "active"
- Compound: "CC(=O)C(C#N)c1ccccc1 (centres undefined)"
  Label class: "inactive"

INPUT: Fill in: this test's call for CP(c1ccccc1)c1ccccc1 is ___
OUTPUT: inactive

INPUT: Recorded test call requested for COC1C(OC(N)=O)C(O)C(Oc2ccc3c(O)c(NC(=O)c4ccc(O)c(CC=C(C)C)c4)c(=O)oc3c2C)OC1(C)C (centres undefined)
OUTPUT: inactive

INPUT: Field: outcome | Entry: COc1cccc(NC(=O)N2CCCCC2)c1
OUTPUT: inactive

###

- System: BDF1 mice, P388 leukemia ip, median survival T/C
- Method description: NCI In Vivo Anticancer Drug Screen. Data for tumor model P388 Leukemia (intraperitoneal) in B6D2F1 (BDF1) mice
- Conditions: endpoint: median survival time; dose: 400.0 mg/kg/injection; schedule: Q04DX003 (ip); vehicle: saline with Tween-80
Inconclusive results and toxic doses are left out. The calls were made as follows: active = survival T/C of 150% or more; inactive = T/C below 125% in these data.
Respond using exactly one of the listed classes: y = active, n = inactive

Example entries and their recorded answers appear below.
- Compound: "O=C(O)c1cc2c3c(c1)CCCN3CCC2"
  Label class: "n"
- Compound: "CN1CCOC1=Nc1ccc(Cl)cc1"
  Label class: "n"
- Compound: "COc1ccc(C2C=CC(c3ccccc3)C(c3ccccc3)C2[N+](=O)[O-])cc1OC (centres undefined)"
  Label class: "n"
- Compound: "O=C(Cl)c1ccc(N2C(=O)c3ccccc3C2=O)cc1[N+](=O)[O-]"
  Label class: "n"
- Compound: "Cc1ccc(C)c(Cc2c(C=O)[nH]c(=S)[nH]c2=O)c1"
  Label class: "n"

INPUT: Test call for this compound, please: COc1ccccc1Cl
OUTPUT: n

INPUT: Outcome logged for N=c1ccn2c(n1)OC1C(OP(=O)(O)O)C(CO)OC12 (centres undefined) in this assay:
OUTPUT: y

INPUT: Hi, sorry to bother you, what did the test record for COc1cc(C(Cc2ccnc3ccccc23)Cc2ccnc3ccccc23)ccc1N(C)C ?
OUTPUT: n

INPUT: For CC(C)CC(Br)C(=O)NC(CC(C)C)C(=O)O (centres undefined) , what call appears in the results of this test?
OUTPUT: n

INPUT: Hey, what did the test say about CC(=O)Nc1ccc(/C=C/C(=O)c2ccc(Cl)cc2)cc1 ?
OUTPUT: n

###

- Test system: BDF1 mice, P388 leukemia ip, median survival T/C
- Method description: NCI In Vivo Anticancer Drug Screen. Data for tumor model P388 Leukemia (intraperitoneal) in B6D2F1 (BDF1) mice
- Conditions: endpoint: median survival time; dose: 25.0 mg/kg/injection; schedule: Q01DX009 (ip); vehicle: saline
Inconclusive results and toxic doses are left out. Rule for the calls: active = survival T/C of 150% or more; inactive = T/C below 125% in these data.
Hi! Could you answer with just one of these? active, inactive

- Molecule: "Nc1ccc(OCCNS(=O)(=O)c2cccc(S(=O)(=O)F)c2)c(Cl)c1"
  Label class: "inactive"
- Molecule: "O=C(O)C1(O)C(Cl)(Cl)C(Cl)=C(Cl)C1(Cl)Cl"
  Label class: "inactive"
- Molecule: "N/C(=N\\Cl)C(Cl)(Cl)Cl"
  Label class: "active"
- Molecule: "CC/C(=C\\c1ccc(Cl)cc1)[N+](=O)[O-]"
  Label class: "inactive"
- Molecule: "CCCC(N=Cc1ccccc1O)C(=O)O.CCCC(N=Cc1ccccc1O)C(=O)O.[Fe] (stereo unspecified)"
  Label class: "inactive"
- Molecule: "NS(=O)(=O)O"
  Label class: "inactive"
- Molecule: "COc1ccc(C(C#N)CC(=O)c2ccc(OC)c(OCc3ccccc3)c2)cc1OC (stereo unspecified)"
  Label class: "inactive"
- Molecule: "NC1CONC1=O (stereo unspecified)"
  Label class: "inactive"
- Molecule: "C=CCNC(=O)C(Br)(CC)CC"
  Label class: "inactive"
- Molecule: "CCOC(=O)C1OC(n2cnc3c(N)ncnc32)C(O)C1O (stereo unspecified)"
  Label class: "inactive"

INPUT: For this molecule, state the assay outcome: C#CCOC1CCCCO1 (stereo unspecified)
OUTPUT: inactive

INPUT: Please state the recorded outcome for this molecule: CC(=O)CC(C)=O.CC(=O)CC(C)=O.[Fe]
OUTPUT: inactive

INPUT: Could you kindly confirm the outcome this assay logged for O=c1[nH]nnc2ccccc12 ?
OUTPUT: inactive

INPUT: Please share the test call associated with NC(N)=NCCCCC(=O)Nc1ccc(S(N)(=O)=O)cc1 .
OUTPUT: inactive

INPUT: Status in this test for CCOC(=O)c1cc(C(=O)OCC)c(=O)oc1OCC ?
OUTPUT: inactive

INPUT: Short answer needed: outcome of this test for CC(C)CSC(C)C ?
OUTPUT: inactive

INPUT: Test call for this molecule, please: C[N+]1(C2CCC3CCC2C3O)CCOCC1 (stereo unspecified)
OUTPUT: inactive

INPUT: Call for entry CCc1nc2nc(C)cc(C)n2n1 :
OUTPUT: inactive

INPUT: Check the results log: what was the call for C(CC1CO1)C1CO1 (stereo unspecified) ?
OUTPUT: active

INPUT: Kindly provide the recorded test outcome for the following molecule: O=C(O)CCNCc1ccccc1
OUTPUT: inactive

INPUT: Kindly provide the recorded test outcome for the following molecule: CCNNC(=O)[C@@H]1[C@H](c2cc(OC)c(OC)c(OC)c2)c2cc3c(cc2[C@H](O)[C@H]1CO)OCO3
OUTPUT: inactive

###

- Test system: BDF1 mice, P388 leukemia ip, median survival T/C
- Method description: NCI In Vivo Anticancer Drug Screen. Data for tumor model P388 Leukemia (intraperitoneal) in B6D2F1 (BDF1) mice
- Conditions: endpoint: median survival time; dose: 25.0 mg/kg/injection; schedule: Q01DX009 (ip); vehicle: saline with Tween-80; higher = longer survival
Toxic doses and inconclusive results are not listed.
Value type: T/C

Solved entries:
- Compound: "CC(=O)Nc1nc(Cl)c([N+](=O)[O-])c(SCc2ccccc2)n1"
  T/C: "98 % of control"
- Compound: "O=C(Nc1ccc(C2=NCCN2)cc1)Nc1cccc(NC(=O)Nc2cccc(C3=NCCN3)c2)c1"
  T/C: "105 % of control"
- Compound: "Cc1c[se]c(=S)s1"
  T/C: "101 % of control"
- Compound: "Cc1[o+]c(C)c2c(c1C)-c1ccccc1C2=O"
  T/C: "98 % of control"
- Compound: "O=C1C=C(NCc2ccccc2)CCC1"
  T/C: "108 % of control"
- Compound: "N=c1ccn2c(n1)OC1C(O)C(COS(=O)OC3C(CO)OC4C3Oc3nc(=N)ccn34)OC12 (stereo not drawn)"
  T/C: "122 % of control"
- Compound: "CC1=C(/C=C/C(C)=C/C=C/C(C)=C/C(=O)O)C(C)(C)CCC1"
  T/C: "104 % of control"

We next turn to a different compound, shown below.
Documented T/C of CCN1CCCC(Nc2nc(C(Cl)(Cl)Cl)nc3cc(Cl)ccc23)C1 (stereo not drawn) : 109 % of control

###

- Tested on: BDF1 mice, P388 leukemia ip, median survival T/C
- Method description: NCI In Vivo Anticancer Drug Screen. Data for tumor model P388 Leukemia (intraperitoneal) in B6D2F1 (BDF1) mice
- Conditions: endpoint: median survival time; dose: 400.0 mg/kg/injection; schedule: Q04DX003 (ip); vehicle: Klucel (hydroxypropylcellulose) (HPC); higher = longer survival
Toxic doses and inconclusive results are not listed.
// values below are reported T/C

Worked examples follow.
- Compound: "BrC1C2CCC(CC2)C1Br (centres undefined)"
  Value measured: "91 % of control"
- Compound: "CCCCn1cnc2c(SC)nc(N)nc21"
  Value measured: "90 % of control"
- Compound: "COc1ccccc1NC(=O)Oc1c(C(C)C)cccc1C(C)C"
  Value measured: "100 % of control"
- Compound: "CC(=O)c1ccccc1I"
  Value measured: "95 % of control"
- Compound: "O=C(Cc1ccccc1)OCC#CC#CCOC(=O)Cc1ccccc1"
  Value measured: "109 % of control"
- Compound: "CCCCCCCCCCC(=O)OCC#CC#CCOC(=O)CCCCCCCCCC"
  Value measured: "100 % of control"

Given the compound CC1C=CC(C)C(C(=O)c2ccccc2)C1C(=O)c1ccccc1 (centres undefined) and test system BDF1 mice, P388 leukemia ip, median survival T/C, the measured T/C is 100 % of control

Item CC1SC(N)=NC1=O (centres undefined) ; assay system BDF1 mice, P388 leukemia ip, median survival T/C; T/C reported as 109 % of control

For O=C(OC1COC(Br)C(OC(=O)c2ccccc2)C1OC(=O)c1ccccc1)c1ccccc1 (centres undefined) on BDF1 mice, P388 leukemia ip, median survival T/C, measured T/C was 100 % of control
